experimental_target: T1, human SIRPA_V1 protein (human, UniProt P78324 31-504)
T1 construct: Expressed on 293α cells from pcDNA3.2 V5-DEST or pFLAG V5-DEST (FLAG-tagged) vectors; also called human SIRPA Variant 1; hSIRPA V1
T1 sequence (P78324 31-504 limits assumed): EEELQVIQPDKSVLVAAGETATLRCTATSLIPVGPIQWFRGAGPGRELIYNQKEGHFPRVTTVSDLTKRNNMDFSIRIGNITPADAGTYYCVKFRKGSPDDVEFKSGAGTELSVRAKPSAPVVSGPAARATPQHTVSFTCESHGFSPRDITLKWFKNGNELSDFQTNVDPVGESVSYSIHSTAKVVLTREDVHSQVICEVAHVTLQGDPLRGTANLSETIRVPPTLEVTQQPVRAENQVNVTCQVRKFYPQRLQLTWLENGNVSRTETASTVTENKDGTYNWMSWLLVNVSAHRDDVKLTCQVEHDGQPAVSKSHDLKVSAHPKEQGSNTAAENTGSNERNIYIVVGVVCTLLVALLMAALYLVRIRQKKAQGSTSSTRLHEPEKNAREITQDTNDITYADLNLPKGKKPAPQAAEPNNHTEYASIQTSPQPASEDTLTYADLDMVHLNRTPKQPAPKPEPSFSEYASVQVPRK
assay_name: cell-based ELISA on 293α cells expressing FLAG-tagged SIRPA_V1; Abs 490 normalized to FLAG tag [i]
readout_name: EC50 (read off the curve)

binder="humanized anti-SIRPA antibody hD13_H1L3 (antibody, human IgG4 S228P, kappa, F234A L235A, V domains shown, hH1 heavy chain (IgG4proFALA) and hL3 kappa light chain; also called hD13_HIL3; HIL3 antibody) VH: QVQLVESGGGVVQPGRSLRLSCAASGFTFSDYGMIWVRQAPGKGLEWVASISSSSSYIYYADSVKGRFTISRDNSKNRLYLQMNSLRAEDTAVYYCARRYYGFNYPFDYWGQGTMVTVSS VL: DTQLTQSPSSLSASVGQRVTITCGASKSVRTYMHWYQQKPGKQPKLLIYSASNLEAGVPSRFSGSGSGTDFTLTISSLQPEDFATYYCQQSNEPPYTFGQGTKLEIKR" result="~0.04 µg/mL"

Cited source for all entries: patent US20260098102A1
